Assay: Inhibition of Mycobacterium tuberculosis uracil-DNA glycosylase by fluorescence based assay
ENDPOINT NAME: pIC50
Just the number, please; pIC50 means minus log10 of the concentration in mol/L.

- CC(=O)N(CC(O)CO)c1c(I)c(C(=O)NCC(O)CO)c(I)c(C(=O)NCC(O)CO)c1I (configuration not stated) [IOHEXOL]: 3.22
- Cc1[nH]c(=O)[nH]c(=O)c1CC(=O)N(Cc1ccc2c(c1)OCO2)Cc1ccccc1F: 3.85
- CC(C)c1ccc(OCC(=O)Nc2c[nH]c(=O)[nH]c2=O)cc1: 2.12

Entry under test: Cc1ccc(CCOc2ccc(C[C@@H]3SC(=O)NC3=O)cc2)nc1 . Its pIC50 was 2.05

Entry under test: O=C1CN(/N=C/c2ccc([N+](=O)[O-])o2)C(=O)N1 . Its pIC50 was 3.01

Entry under test: CC(C)(Cc1cccc(Cl)c1)C(=O)NCCc1n[nH]c(=O)[nH]1 . Its pIC50 was 2.39

Entry under test: O=C(NCc1nc2ccc(Cl)cc2[nH]1)c1c[nH]c(=O)[nH]c1=O . Its pIC50 was 2.19

Source of measurements: ChEMBL document CHEMBL5236574
